Provide the recorded self-cleavage for the entries that follow.
B1: CPEB3 Ribozyme (parent)
chain: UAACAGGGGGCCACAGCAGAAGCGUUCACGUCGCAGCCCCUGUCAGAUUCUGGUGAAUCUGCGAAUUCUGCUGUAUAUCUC

# Variants of: B1
# Method Notes: self-cleavage, relative activity (ratio to wild type); higher = more cleavage; in vitro, sequencing
One number for each entry.

Guide cases for self-cleavage, answers given:
Query: Tell me its self-cleavage given UAACAGGGGGCCACAGCAGAAGCGUUCACGUCGCAGCCCCUGUCAGAUUCUGGUGGAUCUGGGAAUUCUGCUGUAUAUCUC [A56G C62G] as the entry.
Reply: 0.2

Query: Tell me its self-cleavage given UAACAGGGGACCACAGCAGAAGCGUUCACGUCGCAGCCCCUGUCAGAUUCUGGUGAAUCUGCGAAUUCCGCUGUAUAUCUC [G10A U69C] as the entry.
Reply: 0.2

For every listed record, write down its self-cleavage.
1. UAACAGGGGGCCACAGCAGAAGCGUUCACGUCGCAGCCCCUGUCAGAUUCUGGUGAAUCUGCGAAUUCUGCUGUAUCUCUC [A77C]
2. UAACAGGGGGCCACAGCAGAAGCGUUCACGUCGCAGCCCCUGUCAGAUUCUGGUGAGUCUGCGAAUUCUACUGUAUAUCUC [A57G G70A]
3. UAACAGGGGGCCACAGCAGAAGCGUUCGCGUCGCAGCCCCUGUCAGAUUCUGGUGAAUCUGCGACUUCUGCUGUAUAUCUC [A28G A65C]
4. UAACAGGGGGCCACAGCAGAAGCGUUCACGUCGCAGCCCCUGUCAGAAUCUGGUGAAUCUGCGAUUUCUGCUGUAUAUCUC [U48A A65U]
5. UAACAGGGGGCCACAGCAGAAGCGUCCACGUCGCAGCCCCCGUCAGAUUCUGGUGAAUCUGCGAAUUCUGCUGUAUAUCUC [U26C U41C]
6. UAACAGGGGGCCACAGCAGAAGCGUUCACGUCGCAUCCCCUGUCAGAUUCUGGUGAAUCUGCGAAUUCUGCUGUAUGUCUC [G36U A77G]
7. UAACAGGGGGCCACAGCAGACGCGUUCACGUCGCAGCCCCCGUCAGAUUCUGGUGAAUCUGCGAAUUCUGCUGUAUAUCUC [A21C U41C]

Reply:
[0.98, 0.49, 0.21, 0.15, 0.45, 0.12, 0.13]

For every listed record, write down its self-cleavage.
1. UAACAGGGCGCCACAGCAGAAGCGUUCACAUCGCAGCCCCUGUCAGAUUCUGGUGAAUCUGCGAAUUCUGCUGUAUAUCUC [G9C G30A]
2. UAACAGGGGGCCACAGCUGAAGCGUCCACGUCGCAGCCCCUGUCAGAUUCUGGUGAAUCUGCGAAUUCUGCUGUAUAUCUC [A18U U26C]

Reply:
1: 0.1; 2: 0.26

For every listed record, write down its self-cleavage.
1. UAACAGGGGGCCACAGCAGAAGCGUUCACGUCGCUGCUCCUGUCAGAUUCUGGUGAAUCUGCGAAUUCUGCUGUAUAUCUC [A35U C38U]
2. UAACAGGGGGCCACAGAAGAAGCGUUCACGUCGCGGCCCCUGUCAGAUUCUGGUGAAUCUGCGAAUUCUGCUGUAUAUCUC [C17A A35G]
3. UAACAGGGGGCCACAGCAGAAGCGUUCACGUCGCAGCCCCUGUCAGAUUCUGGUGAAUCUGCGAAUUCUGCUGUAUUUCGC [A77U U80G]

Reply:
[0.47, 0.49, 1.26]

Query: Tell me its self-cleavage given UAACAGGGGGCCACAGCAGAAGCGUUCACGGCGCAGCCCCUGUCAGAUUCUGGAGAAUCUGCGAAUUCUGCUGUAUAUCUC [U31G U54A] as the entry.
Reply: 0.62
